test system: Wild type; assay: S. aureus survival, RN4220 and DeltatarO strains – OD600, teichoic acid synthesis inhibitors, primary screen (AID 463173); details: S. aureus RN4220 wild type/DeltatarO growth, OD600, 18 h, hits give low values, screened at 18.75 µg/mL (by protocol)
Among all 52,000 compounds or so, about 1,700 (3.3%) were called active. The sample as a whole holds a higher share of actives than the screen did.
Label 1 (yes) when survival is strictly below 80%; otherwise label 0 (no).

molecule	experimental_system	class_label
COc1ccc(CNC(=O)c2sc3nc4n(c(=O)c3c2C)CCCCC4)cc1	Wild type	0 (no)

hey, is survival for CCOC(=O)CC(=O)CSc1nc2ccccc2c(=O)n1CCc1ccc(S(N)(=O)=O)cc1 lower than 80% or not?
1 (yes)

Check if survival falls below 80% for CN(C)c1ccc(NC(=O)CSC2=Nc3ccccc3C3=NC(CC(=O)NCc4ccc5c(c4)OCO5)C(=O)N23)cc1 (centres undefined) .
0 (no)
